- Tested on: UACC-257 melanoma
- assay-comment: NCI-60 one-dose screen, 48 h
- run-parameters: 10 µM unless noted
Compounds without any hit were thinned out: in the full panel of roughly 83,000, 20% have a hit. Active and inactive are the calls of the source. Rule for the calls: active = growth percent below 10; inactive = the rest.
Write down one outcome, taken from active, inactive

Some solved cases for reference:
[
  {
    "compound": "COc1ccc(C/C(C)=C(/c2ccc(OCCN3CCCCC3)cc2)c2ccc(OC(=O)NCc3ccccc3)cc2)cc1",
    "test-target": "UACC-257 melanoma",
    "qualitative-label": "active"
  },
  {
    "compound": "O=C(c1ccc(-c2nc(CSc3nc4ccccc4s3)no2)cc1)N1CCSCC1",
    "test-target": "UACC-257 melanoma",
    "qualitative-label": "inactive"
  },
  {
    "compound": "COC1=CC(c2ccc[nH]2)=N/C1=C\\c1[nH]c(C)c(C(=O)OCc2ccccc2)c1C",
    "test-target": "UACC-257 melanoma",
    "qualitative-label": "active"
  },
  {
    "compound": "Cc1ccc(C2=Nc3c(N)ncnc3NC(c3ccc4c(c3)OCO4)C2)cc1 (stereo not drawn)",
    "test-target": "UACC-257 melanoma",
    "qualitative-label": "inactive"
  },
  {
    "compound": "O=C1c2c(c3c4ccccc4[nH]c3c3ccc4ccccc4c23)C(=O)N1CCN1CCCCC1",
    "test-target": "UACC-257 melanoma",
    "qualitative-label": "inactive"
  },
  {
    "compound": "CCCCCOc1ccc(C(=O)/C(Br)=C/C(=O)O)cc1",
    "test-target": "UACC-257 melanoma",
    "qualitative-label": "inactive"
  },
  {
    "compound": "NC(=O)c1c(NC(=O)c2ccccc2)sc2c1CCC(=O)C2",
    "test-target": "UACC-257 melanoma",
    "qualitative-label": "active"
  },
  {
    "compound": "CO[C@H]1/C=C(/C)CCC[C@H](C)[C@H](O)[C@@H](C)C(=O)C(C)(C)[C@@H](O)CC(=O)O[C@@H]1/C(C)=C/c1csc(C)n1",
    "test-target": "UACC-257 melanoma",
    "qualitative-label": "inactive"
  },
  {
    "compound": "CCCCC(=O)Nc1ncc(Cc2ccc(Cl)cc2)s1",
    "test-target": "UACC-257 melanoma",
    "qualitative-label": "inactive"
  },
  {
    "compound": "Brc1ccc2[nH]cc(-c3nonc3-c3c[nH]c4ccccc34)c2c1",
    "test-target": "UACC-257 melanoma",
    "qualitative-label": "inactive"
  }
]

Q: Give the logged outcome of this assay for the following compound: COc1ccc(C(=O)Nc2ncc(Cc3cccc(Cl)c3)s2)cc1OC
A: inactive

Q: Give the logged outcome of this assay for the following compound: O=S(=O)(Nc1ccccc1)c1ccc(C2CC3(Cl)C(Cl)=C(Cl)C2(Cl)C3(Cl)Cl)cc1 (stereo not drawn)
A: inactive

Q: Give the logged outcome of this assay for the following compound: CCCCCCCCCCCCCCCCCCOc1ccccc1CC(=O)OCC[N+]1(C)CCCC1
A: inactive

---

- Tested on: MDA-MB-231 breast
- assay-comment: NCI-60 one-dose screen, 48 h
- run-parameters: 10 µM unless noted
This is part of a sample that, as a whole, favours compounds with a hit. Of some 83,000 tested, about 20% had one in any assay. The source made the active and inactive calls. How the source made its calls: active means growth percent below 10; inactive means the rest.
Write down one outcome, taken from active, inactive

[
  {
    "molecule": "O=S(=O)(Nc1ccccc1)c1ccc(C2CC3(Cl)C(Cl)=C(Cl)C2(Cl)C3(Cl)Cl)cc1 (configuration not stated)",
    "qualitative-label": "inactive"
  },
  {
    "molecule": "COC(=O)/C=C1/SC(=Nc2ccc(C)cc2)N(CCc2c[nH]c3ccc(O)cc23)C1=O",
    "qualitative-label": "inactive"
  },
  {
    "molecule": "Cc1c(-n2nnc(-c3nc4ccccc4s3)c2N)c(=O)n(-c2ccccc2)n1C",
    "qualitative-label": "inactive"
  },
  {
    "molecule": "CC(=O)OC[C@]12CCC(C)(C)C[C@H]1[C@@]1(O)[C@H](O)C[C@@H]3[C@@]4(C)CCCNC(C)(C)[C@@H]4CC[C@@]3(C)[C@]1(C)CC2",
    "qualitative-label": "inactive"
  },
  {
    "molecule": "COc1cc(CNC(=O)/C=C/C=C/c2ccc3c(c2)OCO3)ccc1OCc1cn(-c2ccc(C)c(C)c2)nn1",
    "qualitative-label": "inactive"
  },
  {
    "molecule": "COC(=O)c1c2c(c(C)[n+]([O-])c1C)C(=O)C=C(NCc1ccc(Br)cc1)C2=O",
    "qualitative-label": "active"
  },
  {
    "molecule": "CC1=Nc2cnc(Nc3ccc(OCCN4CCCCC4)cc3)nc2Nc2ccccc21",
    "qualitative-label": "inactive"
  },
  {
    "molecule": "O=C(Nn1c2c(sc1=Nc1ccccc1)C(=O)c1ccccc1C2=O)c1cc2ccc1CCc1ccc(cc1)CC2",
    "qualitative-label": "inactive"
  },
  {
    "molecule": "CC/C(=C(/c1ccc(Cl)cc1)c1ccc(OCCN2CCCC2)cc1)c1ccc(OC)cc1",
    "qualitative-label": "inactive"
  },
  {
    "molecule": "CCCc1cc(NC)nc(S(=O)(=O)CC)n1",
    "qualitative-label": "inactive"
  }
]

Q: Give the logged outcome of this assay for the following molecule: O=C1N(Cc2ccccc2Cl)c2ccccc2C12NN=C(c1cccc(Cl)c1)S2 (configuration not stated)
A: active

Q: Give the logged outcome of this assay for the following molecule: Nc1ncnc2c1N=C(c1ccc(Cl)cc1)CC(c1ccc3c(c1)OCO3)N2 (configuration not stated)
A: inactive

From: PubChem BioAssay (NCI)
